- Assay Target: mASH1L PHD domain (residue 2573–2624) I2575A (mouse, UniProt Q99MY8 2573-2624, I2575A)
- Test Method Notes: ITC
pKd: −log10 of the molar value. Primed or numbered codes have the meaning given here. Where no end group is shown, it is not given here. [ ]: non-standard residue; d: D form. Me3″ = trimethylation (trimethyl-lysine); Lys(Me2) = CN(C)CCCC[C@H](N)C(=O)O
Quick reference: pKd of the listed items.

- Binder: "ARTK(Me3″)QTARKSTGGKA (peptide, UniProt P68431 2-16, looked up, histone H3, residues 1-15; also called H3K4me3; source: synthetic peptide (MIMOYOPES, Wuxi, China)) [histone H3 (1–15) peptide, trimethylated on lysine 4]"
  Operator: "="
  pKd: 3.99
- Binder: "ART[Lys(Me2)]QTARKSTGGKA (also called H3K4me2; H3K4me2 peptide (1–15); source: synthetic peptide (MIMOYOPES, Wuxi, China)) [histone H3 (1–15) peptide, dimethylated on lysine 4]"
  Operator: "<"
  pKd: 3.70
